Molecular target: Cytochrome P450 2C9 (Homo sapiens, UniProt P11712)
Sequence (P11712 whole entry): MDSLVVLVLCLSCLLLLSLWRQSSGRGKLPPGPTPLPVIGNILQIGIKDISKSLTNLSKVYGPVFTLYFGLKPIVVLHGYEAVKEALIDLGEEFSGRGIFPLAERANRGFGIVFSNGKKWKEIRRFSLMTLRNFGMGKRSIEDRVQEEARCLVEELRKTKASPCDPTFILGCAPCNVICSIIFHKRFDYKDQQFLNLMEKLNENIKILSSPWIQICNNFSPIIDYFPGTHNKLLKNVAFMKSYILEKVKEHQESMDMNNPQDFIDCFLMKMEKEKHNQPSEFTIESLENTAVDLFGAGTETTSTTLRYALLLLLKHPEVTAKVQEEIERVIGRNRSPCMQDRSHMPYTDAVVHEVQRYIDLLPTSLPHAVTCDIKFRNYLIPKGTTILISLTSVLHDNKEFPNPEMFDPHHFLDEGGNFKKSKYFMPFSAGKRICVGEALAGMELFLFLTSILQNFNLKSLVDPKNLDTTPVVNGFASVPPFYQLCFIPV
Test: Inhibition of CYP2C9 (unknown origin)
Assay type: ADME
reported endpoint: IC50 (µM)

>>> df
                           molecular_string  val
0  O=C(Nc1ccncc1)c1cn(Cc2ccc(Cl)c(Cl)c2)c(=O)c2cnn(C3CCNCC3)c12  5.9

---

These records show Kd for Fascin (Homo sapiens, UniProt Q16658).
reported endpoint: Kd

>>> print(df.to_string())
                                   molecule                            target_desc       val
0       O=c1c2cn[nH]c2ncn1Cc1ccc(Cl)c(Cl)c1  Fascin (Homo sapiens, UniProt Q16658)  > 500 µM
1  Cn1cc(NC(=O)c2cn(Cc3ccc(Cl)c(Cl)c3)c(=O)c3ncccc23)cn1  Fascin (Homo sapiens, UniProt Q16658)  > 100 µM
2  Cn1cc(NC(=O)c2cn(Cc3ccc(Cl)c(Cl)c3)c(=O)c3cccnc23)cn1  Fascin (Homo sapiens, UniProt Q16658)  > 100 µM
3  O=C(Nc1cnn(C2CCNC2)c1)c1ccc(=O)n(Cc2ccc(Cl)c(Cl)c2)c1 (centres undefined)  Fascin (Homo sapiens, UniProt Q16658)  > 100 µM
